Test system human renin (Homo sapiens, UniProt P00797), pIC50 listed for each of the compounds.
pIC50: −log10 of the molar value.
assayReadout: pIC50

a: CC(C)C[C@H](NC(=O)[C@H](Cc1cnc[nH]1)NC(=O)C(CC(=O)NCCc1ccccc1)Cc1cccc2ccccc12)C(O)C(=O)N(C)C (single isomer, unassigned)
b: COC(=O)C(O)[C@H](CC(C)C)NC(=O)[C@H](Cc1c[nH]cn1)NC(=O)C(CC(=O)NCCc1ccccc1)Cc1cccc2ccccc12 (mixture of isomers)
Ask: Which item exceeds the other in pIC50, a or b ? Lab log: write the label of the selected item as the result.
Reply: b

1: CC(C)CCOC(=O)C(O)[C@H](CC(C)C)NC(=O)[C@H](Cc1c[nH]cn1)NC(=O)C(CC(=O)NCCc1ccccc1)Cc1cccc2ccccc12 (single isomer, unassigned)
2: CC(C)CCNC(=O)C(O)[C@H](CC(C)C)NC(=O)[C@H](Cc1cnc[nH]1)NC(=O)C(CC(=O)NCCc1ccccc1)Cc1cccc2ccccc12 (single isomer, unassigned)
Ask: Which has the higher pIC50, 1 or 2 ? Bench note: the answer is the label of the chosen record.
Reply: 1
(1: 7.21, 2: 6.60)
